For reference, the following Ki results for Serine protease 1 (Homo sapiens) were taken from various sources.
# strict inequality: Ki < 0.2 µM yields 1, everything else yields 0

Answered cases to consult:
CCc1nc2cc(OC3CCN(C(C)=N)CC3)ccc2n1Cc1cccc(-c2cccc(C(=N)N)c2)c1
1
COC(=O)[C@H](Cc1cccc(C(=N)N)c1)[C@@H](CCc1ccccc1)NC(=O)c1ccc(-c2ccccc2)cc1
1
N=C(N)c1ccc2[nH]cc(CC(=O)Nc3ccc(-c4ccccc4S(N)(=O)=O)cn3)c2c1
1
CCc1nc2ccc(OC3CCN(C(C)=N)CC3)cc2n1Cc1cccc(-c2cccc(C(=N)N)c2)c1
1
N=C(N)c1ccc2c(c1)ncn2CC(=O)Nc1ccc(-c2ccccc2)cc1
0
NCc1ccc(Cl)cc1CNC(=O)[C@@H]1CCCN1C(=O)[C@H](N)Cc1ccccc1
0

### Prompt In the record for CCOc1ccc(C(Nc2ccc(C(=N)N)cc2)C(=O)NCc2ccccc2)cc1OCC (configuration not stated) , is Ki less than 0.2 µM?
### Response 0

### Prompt In the record for O=C(NCCC1CCNCC1)N1CCN(C(=O)O[C@H]2CCC[C@@H](OC(=O)N3CCN(C(=O)NCCC4CCNCC4)CC3)CCC2)CC1 , is Ki less than 0.2 µM?
### Response 0

### Prompt In the record for O=C(Cn1ccnc(NCC(F)(F)c2ccccn2)c1=O)NCc1ncccc1F , is Ki less than 0.2 µM?
### Response 0

### Prompt In the record for COC(=O)[C@H](Cc1cccc(C(=N)N)c1)[C@@H](C)NC(=O)c1ccc(-c2ncc[nH]2)cc1 , is Ki less than 0.2 µM?
### Response 0

### Prompt In the record for N=C(N)c1ccc(O)c(CN2CC[C@H](NS(=O)(=O)c3cc4ccncc4s3)C2=O)c1 , is Ki less than 0.2 µM?
### Response 0

### Prompt In the record for Cc1nc(C(=O)C(NC(=O)[C@@H]2CC[C@H]3CN(S(=O)(=O)Cc4ccccc4)CC(=O)N32)[C@H]2CC[C@H](N)CC2)sc1C(=O)O (some centres not stated) , is Ki less than 0.2 µM?
### Response 0

### Prompt In the record for CC(C)c1cc(S(=O)(=O)N[C@H](CO)C(=O)NCC(=O)NCc2ccc(C(=N)N)cc2)cc(C(C)C)c1C(C)C , is Ki less than 0.2 µM?
### Response 0

### Prompt In the record for N=C(N)c1ccc(O)c(/C=C/CNC(=O)c2ccc(-c3ncc[nH]3)cc2)c1 , is Ki less than 0.2 µM?
### Response 0

### Prompt In the record for N=C(N)c1ccc2ncn(CC(=O)c3ccc(-c4ccccc4S(N)(=O)=O)cc3)c2c1 , is Ki less than 0.2 µM?
### Response 0

### Prompt In the record for O=C(O)Cn1c(CN2CCN(S(=O)(=O)c3cc4ccc(Cl)cc4s3)CC2=O)cc2cnccc21 , is Ki less than 0.2 µM?
### Response 0

### Prompt In the record for N=C(N)c1ccc(O)c(/C=C/CNC(=O)c2ccc(-c3ccc(S(N)(=O)=O)cc3)cc2)c1 , is Ki less than 0.2 µM?
### Response 0
